These entries and their values trace back to patent US5395947A.

Listed below: Lethality values for each entry.
System: ICR mice
Experiment: Acute toxicity test
Format: in vivo
Set-up: unit not given here
Details: male, 208 mg/kg i.p.; 10080 min
Protocol: 7-week-old ICR mice(male: 34±2 g; female: 31±2 g) were fed with solid food and water under the condition of 23±1° C. temperature and 65±5% humidity before the test. Each treatment group consisted of 6 mice. The test compounds were administered intraperitoneally. For 7 days after the administration, the appearance and the fate of the tested animals were recorded. The dead animals were subjected to autopsy and their visible pathological changes were observed. […]

CCC1OC2C[NH2+][Pt-2]3([NH2+]CC2O1)[O]C(=O)C1(CCC1)C(=O)[O]3 (centres unmarked) [Example 24] | 16.7
CC1(C)OC2C[NH2+][Pt-2]3([NH2+]CC2O1)[O]C(=O)C1(CCC1)C(=O)[O]3 (centres unmarked) [Example 26] | 16.7
O=C1[O][Pt-2]2([NH2+]CC3OC4(CCCC4)OC3C[NH2+]2)[O]C(=O)C12CCC2 (centres unmarked) [Example 30] | 83.3
CC1OC2C[NH2+][Pt-2]3([NH2+]CC2O1)[O]C(=O)C1(CCC1)C(=O)[O]3 (centres unmarked) [Example 22] | 83.3

# input for lookup
// Lethality value for O=C1[O][Pt-2]2([NH2+]CC3OCOC3C[NH2+]2)[O]C(=O)C12CCC2 (centres unmarked) [Example 20] : 100.0
